Measured values drawn from the supplement of paper PMC9732359 for this set.

- measurementProtocol: protein stability index of a GFP-peptide fusion (yeast GPS) (PSI 1-4); higher = more stable; sorted into four equal gates, so the index is relative within each strain
- testParameters: pdr5∆
propertyMeasured: protein stability index
One number for each entry.

Examples with their reported protein stability index follow.
{"columns": ["biosequence", "protein stability index"],
 "data": [
  ["EKPDNSNHNNLNLNNSE [SNF2]", 3.19],
  ["AIIGLKSGTSHDAIFSI [SNF12]", 2.65],
  ["VMIAEIPTLAIDSVEVE [RPB3]", 2.65]
]}

For each entry beneath this line, provide reported protein stability index.
1. KSIENPTQTKGNDAKPA [YLR335W/NUP2]
2. SSPYAAMLAAQDVAAKC [RPS14B]
3. YGYWFDCRMGNFYIQYD [AAR2]

1. 3.24
2. 1.42
3. 2.08
